This section presents IC50 values reported for MALT1 (Homo sapiens, UniProt Q9UDY8) in the literature.

{"columns": ["molecule", "IC50"],
 "data": [
  ["O=S(=O)(Nc1cccc2cnn(C(F)F)c12)c1cnn(-c2cc(Cl)ccn2)c1", "> 2.5 µM"],
  ["COc1ncc2cnn(C)c2c1NS(=O)(=O)c1cnn(-c2cc(C(C)OC)ccn2)c1 (single isomer, unassigned)", "≤ 0.4 µM"],
  ["Cn1ncc2cccc(NS(=O)(=O)c3cnn(-c4cc(N5CCCCCC5)ccn4)c3)c21", "> 2.5 µM"],
  ["C#Cc1cc(F)cc(N)c1-c1cc(Cl)c(C(=O)Nc2cnc(-n3nccn3)c(Cl)c2)cc1F", "≤ 0.01 µM"],
  ["[2H]C([2H])([2H])Oc1ccc2cnn(C)c2c1NS(=O)(=O)c1cnn(-c2cc(C3CC3)ccn2)c1", "≤ 0.4 µM"],
  ["CC(O)c1cnn(-c2ccc(S(=O)(=O)Nc3cccc4cnn(C)c34)cn2)c1 (stereo not shown)", "> 2.5 µM"],
  ["COc1ccc2cnn(C)c2c1NS(=O)(=O)c1ccc(-c2cc(C(F)(F)F)nn2C)nc1", "< 0.4 µM"],
  ["COc1ccc2nnn(C)c2c1NS(=O)(=O)c1cnn(-c2ccnc(C(F)(F)F)c2)c1", "> 2.5 µM"],
  ["C#Cc1c(F)ncc(N)c1-c1cc(Cl)c(C(=O)Nc2cnc(-n3nccn3)c(Cl)c2)cc1F", "≤ 0.01 µM"],
  ["COc1ncc2cnn(C)c2c1NS(=O)(=O)c1cnn(-c2cc(N3CC[C@@H](C)C3)ccn2)c1", "> 2.5 µM"],
  ["COc1ncc2cnn(C)c2c1NS(=O)(=O)c1cnn(-c2cc(N3CC4(CC4)C3)ccn2)c1", "> 2.5 µM"],
  ["COc1ncc2cnn(C)c2c1NS(=O)(=O)c1cnn(-c2cc(C3(F)COC3)ccn2)c1", "≤ 0.4 µM"],
  ["COc1ccc2cnn(C)c2c1NS(=O)(=O)c1ccc(-c2nn(C)c3c2COCC3)nc1", "> 2.5 µM"],
  ["C#Cc1cncc(N)c1-c1cc(Cl)c(C(=O)Nc2cnc(C(=O)NCC(C)(C)C)c(Cl)c2)cc1F", "≤ 0.01 µM"],
  ["COc1ccc2cnn(C)c2c1NS(=O)(=O)c1ccc(-c2nc(C)no2)nc1", "1 to 2.5 µM"],
  ["CC#Cc1cc(C(=O)Nc2cnc(-n3nccn3)c(Cl)c2)c(C)cc1-c1ccc(F)cc1N", "0.01 to 0.1 µM"],
  ["Cn1nc(-c2ccc(S(=O)(=O)Nc3cccc4cnn(C)c34)cn2)c2c1CCOC2", "> 2.5 µM"],
  ["Cn1ncc2cccc(NS(=O)(=O)c3ccc(-n4ccc(C(F)F)n4)nc3)c21", "1 to 2.5 µM"],
  ["COC[C@H](O)c1ccnc(-n2cc(S(=O)(=O)Nc3cccc4cnn(C)c34)cn2)c1", "> 2.5 µM"],
  ["Cc1ccc2cnn(C)c2c1NS(=O)(=O)c1cnn(-c2cc(C(F)(F)F)ccn2)c1", "≤ 0.4 µM"],
  ["C#CCNC(=O)c1ncc(NC(=O)c2cc(F)c(-c3ccc(F)cc3N)cc2Cl)cc1Cl", "> 0.5 µM"],
  ["Cn1ncc2ccc(Cl)c(NS(=O)(=O)c3cnn(-c4cc(C(F)(F)F)ccn4)c3)c21", "≤ 0.4 µM"],
  ["COC1CN(c2ccnc(-n3cc(S(=O)(=O)Nc4cccc5cnn(C)c45)cn3)c2)C1", "> 2.5 µM"],
  ["Cc1cn(-c2ccc(S(=O)(=O)Nc3cccc4cnn(C)c34)cn2)nc1C(F)(F)F", "0.4 to 1 µM"],
  ["CN1C(=O)N(c2ccnc(-n3cc(S(=O)(=O)Nc4cccc5cnn(C)c45)cn3)c2)CC1(C)C", "> 2.5 µM"],
  ["[2H]C([2H])([2H])n1ncc2cnc(OC)c(NS(=O)(=O)c3cnn(-c4cc(C(F)(F)F)ccn4)c3)c21", "≤ 0.4 µM"],
  ["Cn1ncc2cccc(NS(=O)(=O)c3ccc(-c4cnc(C(F)(F)F)s4)nc3)c21", "0.4 to 1 µM"],
  ["CCc1ccc2[nH]nc(C)c2c1NS(=O)(=O)c1cnn(-c2ccnc(C(F)(F)F)c2)c1", "≤ 0.4 µM"],
  ["Nc1cc(F)ccc1-c1cc(Cl)c(C(=O)Nc2cnc(C(=O)NCC3CCC3)c(Cl)c2)cc1F", "0.1 to 0.5 µM"],
  ["CCc1ccc2cnn(C)c2c1NS(=O)(=O)c1cnn(-c2cc(C)nc(C)c2)c1", "≤ 0.4 µM"],
  ["Cc1n[nH]c2cccc(NS(=O)(=O)c3cnn(-c4cc(C5CC5)ccn4)c3)c12", "> 2.5 µM"]
]}
